- System: CAKI-1 renal
- assay notes: NCI tumour cell line growth inhibition, 48 h
measured property: TGI

Q: Supply measured TGI of CC(C)=CC(=O)C[C@H]1C(=O)O[C@@H]2C[C@H]3C(C)=CC(=O)[C@@H](O)[C@]3(C)[C@H]3[C@@]4(O)OC[C@]32[C@@H]1[C@@H](C)[C@H]4O in your reply.
Result: > 50.2 µM

Q: Report TGI, nothing else, for this compound: COc1ccc(O)c(/C(C)=N/NC(=S)N(C)C)c1
Result: > 94.5 µM

Q: Give the reported value of TGI for this record: COc1cc(NS(=O)(=O)c2ccc(-c3cnc(C4CC4)o3)cc2)ccc1F
Result: 30.6 µM

Q: Output measured TGI for this item: CC(C)(C)c1ccc(O)c(CN(Cc2cc(C(C)(C)C)ccc2O)c2ccccc2)c1
Result: > 100 µM
